Would you mind telling me the reported pEC50 of each entry?
- Target System: F508delCFTR (Homo sapiens, UniProt P13569, DEL508-508)
- Construct: expressed in transfected cells; host or cells: CFBE41o- human lung-derived epithelial cells (CFBE4lo-F508delCFTR-HRP), doxycycline-inducible
- Sequence (P13569 with tags, fused parts or gaps DEL508-508): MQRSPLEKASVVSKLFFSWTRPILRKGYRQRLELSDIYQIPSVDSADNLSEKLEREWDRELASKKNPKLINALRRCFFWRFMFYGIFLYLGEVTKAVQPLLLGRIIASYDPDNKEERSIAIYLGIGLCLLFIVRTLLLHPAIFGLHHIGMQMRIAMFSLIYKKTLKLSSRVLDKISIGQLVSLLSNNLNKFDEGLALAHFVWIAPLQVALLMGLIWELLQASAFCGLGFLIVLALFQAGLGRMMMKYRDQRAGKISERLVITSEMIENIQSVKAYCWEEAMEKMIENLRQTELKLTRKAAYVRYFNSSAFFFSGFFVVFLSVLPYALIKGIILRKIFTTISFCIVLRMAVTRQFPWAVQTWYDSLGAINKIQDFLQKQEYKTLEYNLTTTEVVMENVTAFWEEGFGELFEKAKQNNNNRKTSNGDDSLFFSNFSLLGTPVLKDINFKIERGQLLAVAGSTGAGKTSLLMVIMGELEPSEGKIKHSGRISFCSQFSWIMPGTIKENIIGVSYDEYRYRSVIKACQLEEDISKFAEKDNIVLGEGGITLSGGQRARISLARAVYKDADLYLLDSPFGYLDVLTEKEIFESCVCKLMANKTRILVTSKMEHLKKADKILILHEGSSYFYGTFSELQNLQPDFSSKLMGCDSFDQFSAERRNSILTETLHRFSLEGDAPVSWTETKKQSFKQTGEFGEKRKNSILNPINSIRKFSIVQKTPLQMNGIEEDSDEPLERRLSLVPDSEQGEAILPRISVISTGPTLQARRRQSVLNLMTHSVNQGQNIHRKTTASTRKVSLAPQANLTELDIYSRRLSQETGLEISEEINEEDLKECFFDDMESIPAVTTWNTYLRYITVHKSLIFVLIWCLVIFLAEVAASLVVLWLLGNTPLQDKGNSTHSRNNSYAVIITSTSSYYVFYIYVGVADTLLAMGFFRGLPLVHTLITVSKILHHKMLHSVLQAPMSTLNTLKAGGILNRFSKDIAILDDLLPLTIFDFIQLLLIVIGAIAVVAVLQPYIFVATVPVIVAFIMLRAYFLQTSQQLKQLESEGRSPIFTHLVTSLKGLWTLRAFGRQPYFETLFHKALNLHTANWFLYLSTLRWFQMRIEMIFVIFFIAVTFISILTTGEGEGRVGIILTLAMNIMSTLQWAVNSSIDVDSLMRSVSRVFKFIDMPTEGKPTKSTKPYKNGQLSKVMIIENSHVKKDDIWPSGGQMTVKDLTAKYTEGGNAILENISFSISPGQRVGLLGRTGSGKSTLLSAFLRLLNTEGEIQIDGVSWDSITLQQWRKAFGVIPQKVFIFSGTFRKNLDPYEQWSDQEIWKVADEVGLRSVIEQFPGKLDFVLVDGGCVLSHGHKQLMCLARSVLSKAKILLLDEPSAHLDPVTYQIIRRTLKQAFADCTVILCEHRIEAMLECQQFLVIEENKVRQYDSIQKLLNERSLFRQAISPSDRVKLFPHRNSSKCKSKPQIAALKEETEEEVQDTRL
- Assay Text: Cell Surface Expression-Horse Radish Peroxidase (CSE-HRP) Assay
- Assay type: cell-based
- Experimental Context: test compound without co-corrector; read-out: EC50 (without co-corrector)
- Experimental: Cell Surface Expression-Horse Radish Peroxidase (CSE-HRP) Assay The development was achieved by expressing the F508delCFTR mutation along with a horseradish peroxidase (HRP) in the fourth exofacial loop, and then measuring the HRP activity using luminescence readout from these cells, CFBE4lo-F508delCFTR-HRP, that were incubated overnight with the test corrector compounds, either without or with the co-corrector. […] The raw counts from the experiment were analyzed using Accelrys® Assay Explorer v3.3. […]
pEC50: −log10 of the molar value.

Notebook: `CC(C)(C)c1ccc(CN[C@H]2[C@H](C(C)(C)C)[C@@H](C(=O)O)N(C(=O)[C@@H]3CCCC(F)(F)C3)[C@H]2c2ccccc2)c(Cl)n1` , pEC50 read as 5.00 to 6.00

Recorded pEC50 (compound `COc1ccc(C(C)(C)C)cc1CN[C@H]1[C@H](C(C)(C)C)[C@@H](C(=O)O)N(C(=O)Cc2ccsc2)[C@H]1c1ccccc1` ): 5.00 to 6.00

For reference, reported pEC50 for COc1ccc(C(F)(F)F)cc1CN[C@H]1[C@H](C(C)(C)C)[C@@H](C(=O)O)N(C(=O)C2C3CCCC32)[C@H]1c1ccccc1 (stereo partly drawn) stands at 5.00 to 6.00

Given item `COc1ncc(C(F)(F)F)cc1CN[C@@H]1[C@@H](C(C)(C)C)[C@H](C(=O)O)N(C(=O)[C@@H]2CCCCO2)[C@@H]1c1ccccc1` , the value recorded as its pEC50 is 5.00 to 6.00

Value of pEC50 reported for the compound Cc1cc(C(F)(F)F)cc(N[C@@H]2[C@@H](C(C)(C)C)[C@H](C(=O)O)N(C(=O)C3CCCCC3)[C@@H]2c2ccccc2)n1 (racemic) [Example 1] is 5.00 to 6.00

Lab note: `COc1ccc(CC2CCCCC2)cc1CN[C@H]1[C@H](C(C)(C)OC)[C@@H](C(=O)O)N(C(=O)C2CCCCC2)[C@H]1c1ccccc1` gave pEC50 of > 6.00

For record COc1ccc(Cl)cc1CN[C@@H]1[C@@H](C(C)(C)C)[C@H](C(=O)O)N(C(=O)C2CCCCC2)[C@@H]1c1ccccn1 (racemic) the listed pEC50 is 5.00 to 6.00

The compound `COc1ccc([Si](C)(C)C)cc1CN[C@H]1[C@H](C(C)(C)C)[C@@H](C(=O)O)N(C(=O)C2CCCCC2)[C@H]1c1ccccc1` showed pEC50 equal to > 6.00

Lookup result for COc1cc(C(F)(F)F)ccc1CN[C@@H]1[C@@H](C(C)(C)C)[C@H](C(=O)O)N(C(=O)C2CCCCC2)[C@@H]1c1ccccc1OC (stereo in doubt) [III-40] ; measured pEC50: 5.00 to 6.00

Field pEC50 (entry COc1ccc(C(C)(C)C)cc1CN[C@H]1[C@H](C(C)(C)C)[C@@H](C(=O)O)N(C(=O)C2CCCCC2C)[C@H]1c1ccccc1 (stereo partly drawn) ) reads > 6.00

The reported pEC50 of the compound `COc1ncc(Cc2ccccc2)cc1CN[C@H]1[C@H](C(C)(C)C)[C@@H](C(=O)O)N(C(=O)C2CCCCC2)[C@H]1c1ccccc1` was > 6.00

pEC50 reading for `COc1ccc(C23CC(C2)C3)cc1CN[C@H]1[C@H](C(C)(C)C)[C@@H](C(=O)O)N(C(=O)C2CCCCC2)[C@H]1c1cccnc1N(C)C` : 5.00 to 6.00
